Experiment: Steady-state plasma pharmacokinetics after oral dosing for 5 days
Type: in vivo, BALB/c nu/nu mice
Settings: female, BALB/c nu/nu, mouse; plasma analyte after oral regorafenib 10 mg/kg/day for 5 days; read-out: Cmax
Experimental endpoint: Cmax (ng/mL)
Numbers only, in ng/mL.

INPUT: Consider the molecule shown here: CNC(=O)c1cc(Oc2ccc(NC(=O)Nc3ccc(Cl)c(C(F)(F)F)c3)c(F)c2)ccn1 [Regorafenib] What is its recorded Cmax?
OUTPUT: 10700

###

Assay: Steady-state plasma pharmacokinetics after oral dosing for 5 days
Assay type: in vivo, BALB/c nu/nu mice
Conditions: female, BALB/c nu/nu, mouse; plasma analyte after oral regorafenib 10 mg/kg/day for 5 days; read-out: AUC(0–24)ss
Experimental endpoint: AUC(0-t) (ng·h/mL)
Numbers only, in ng·h/mL.

INPUT: // query AUC(0-t) value for entry CNC(=O)c1cc(Oc2ccc(NC(=O)Nc3ccc(Cl)c(C(F)(F)F)c3)c(F)c2)ccn1 [Regorafenib]
OUTPUT: 93100
